# key: entry, value: IC50 (nM), HT29 meso+ cells, MTT proliferation assay
SYSTEM: Mesothelin (SwissProt reference Q13421-3) (Homo sapiens, UniProt Q13421 37-622)
RUN DESCRIPTION: cell-based or functional assay
Output spec: scalar in nM, unitless text.

INSERT INTO results (binder, value_observed) VALUES
  ('Example 98, conjugate of anti-mesothelin antibody MF-Ta (antibody, human IgG1, lambda, V domains shown, toxophore-linker on Cys sulfur, sites not given) VH: QVELVQSGAEVKKPGESLKISCKGSGYSFTSYWIGWVRQAPGKGLEWMGIIDPGDSRTRYSPSFQGQVTISADKSISTAYLQWSSLKASDTAMYYCARGQLYGGTYMDGWGQGTLVTVSS VL: DIALTQPASVSGSPGQSITISCTGTSSDIGGYNSVSWYQQHPGKAPKLMIYGVNNRPSGVSNRFSGSKSGNTASLTISGLQAEDEADYYCSSYDIESATPVFGGGTKLTVLG', 1.7);

--- query ---
q: # lookup: IC50 (nM), HT29 meso+ cells, MTT proliferation assay of Example 145, conjugate of anti-mesothelin antibody MF-Ta (antibody, human IgG1, lambda, V domains shown, toxophore-linker on Lys NH, sites not given) VH: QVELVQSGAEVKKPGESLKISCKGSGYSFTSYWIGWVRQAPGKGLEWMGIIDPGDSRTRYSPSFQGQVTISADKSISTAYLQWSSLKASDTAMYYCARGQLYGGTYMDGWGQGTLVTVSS VL: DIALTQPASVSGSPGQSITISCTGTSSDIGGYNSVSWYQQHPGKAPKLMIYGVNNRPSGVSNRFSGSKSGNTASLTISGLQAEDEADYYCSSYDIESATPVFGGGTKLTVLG
a: 7.4

Source: patent US20150246136A1
